Target: BChE from human plasma (Homo sapiens, UniProt P06276)
Construct: butyrylcholiesterase from human plasma; purchased Sigma-Aldrich; host or cells: human plasma
Sequence (P06276 29-602): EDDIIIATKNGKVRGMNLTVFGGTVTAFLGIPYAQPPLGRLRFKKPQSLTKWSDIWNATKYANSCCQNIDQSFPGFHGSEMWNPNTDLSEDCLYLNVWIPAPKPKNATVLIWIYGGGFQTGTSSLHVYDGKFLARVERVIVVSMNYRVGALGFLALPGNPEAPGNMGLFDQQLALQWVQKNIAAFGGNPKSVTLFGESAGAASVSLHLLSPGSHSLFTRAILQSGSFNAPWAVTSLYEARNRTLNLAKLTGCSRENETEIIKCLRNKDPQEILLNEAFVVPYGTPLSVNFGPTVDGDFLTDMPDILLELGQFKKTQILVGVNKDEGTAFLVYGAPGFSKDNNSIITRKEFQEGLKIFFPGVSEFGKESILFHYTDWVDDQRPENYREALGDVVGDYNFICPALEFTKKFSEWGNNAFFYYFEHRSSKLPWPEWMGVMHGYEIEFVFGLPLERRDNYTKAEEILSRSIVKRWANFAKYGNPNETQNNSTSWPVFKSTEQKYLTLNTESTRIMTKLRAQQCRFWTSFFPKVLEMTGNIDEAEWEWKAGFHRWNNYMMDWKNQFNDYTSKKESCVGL
Assay: In vitro cholinesterase inhibition (Ellman), BuChE
Assay type: biochemical
quantity: pIC50
Please treat pIC50 as minus the base-10 logarithm of the molar concentration.

// query pIC50 value for entry `CC[N+](CC)(CCCCCn1c(=O)ccn(CCCCn2c(C)cc(=O)n(C)c2=O)c1=O)Cc1ccccc1C#N`
3.66

----------
Record form. Attribute: pIC50. Fill in for each entry.
Target: BChE from human plasma (Homo sapiens, UniProt P06276)
Construct: butyrylcholiesterase from human plasma; purchased Sigma-Aldrich; host or cells: human plasma
Assay: In vitro cholinesterase inhibition (Ellman), BuChE
Type: biochemical
Details: Table 1; BChE from human plasma, pH 7.0; read-out: IC50 BuChE
Please treat pIC50 as minus the base-10 logarithm of the molar concentration.

// query pIC50 value for entry CC[N+](CC)(CCCCCn1c(=O)ccn(CCCCCn2c(C)cc(=O)n(C)c2=O)c1=O)Cc1ccccc1C#N [2c]
4.15

// query pIC50 value for entry CC[N+](CC)(CCCCCn1c(=O)ccn(CCCCCCn2c(C)cc(=O)n(C)c2=O)c1=O)Cc1ccccc1C#N [2d]
4.52

// query pIC50 value for entry CC[N+](CC)(CCCCCn1c(=O)ccn(CCCn2c(C)cc(=O)n(C)c2=O)c1=O)Cc1ccccc1C#N [2a]
3.43
